B1: NLV3 TCR beta chain (CDR3β only) (parent)
chain: ASSPTGGSPSPLH

Variants of: B1
Test: T-Switch: Jurkat TCRβ−/− cells expressing a CDR3 saturation-mutagenesis library, stained with two peptide-HLA-A*02:01 tetramers (original and novel peptide) plus anti-CD3, FACS-sorted into four gates, gDNA sequenced
Settings: with both tetramers (double-negative gate, binds neither): HLA-A*02:01 with … and with …, tetramers 1 µg/mL, 30 min on ice, SP, DP and SW gates expanded about 10 days between rounds ('two to three rounds of selection' in the Methods), gate DN: OPPOSITE: higher = more of the variant in the gate that binds neither peptide = LESS binding (or no expression; inferred). Fold enrichment of the CDR3 variant in one FACS gate of a two-tetram, unresolved parent, parent is a CDR3 fragment, scale: fold enrichment, numbering: sequential-on-construct, sequence starts at 1
Assign condition met to entries whose enrichment meets or exceeds 0.8; assign condition not met to the rest.

Would you please look over these solved cases?
Check this variant for enrichment at or above 0.8: […] (CDR3 as printed); A1M derived by comparing it with the table's wild-type CDR3 ASSPTGGSPSPLH
condition met

In plain terms: is recorded enrichment at least 0.8 for […] (CDR3 as printed); P11F derived by comparing it with the table's wild-type CDR3 ASSPTGGSPSPLH ?
condition not met

Quick check, enrichment >= 0.8? […] (CDR3 as printed); T5S derived by comparing it with the table's wild-type CDR3 ASSPTGGSPSPLH
condition not met

// inclusive: enrichment at least 0.8? input: […] (CDR3 as printed); G6N derived by comparing it with the table's wild-type CDR3 ASSPTGGSPSPLH
condition met

// inclusive: enrichment at least 0.8? input: […] (CDR3 as printed); G7C derived by comparing it with the table's wild-type CDR3 ASSPTGGSPSPLH
condition met

Please check the record […] (CDR3 as printed); H13Q derived by comparing it with the table's wild-type CDR3 ASSPTGGSPSPLH and state if its enrichment is at or above 0.8.
condition not met

Does the reported enrichment for […] (CDR3 as printed); P9E derived by comparing it with the table's wild-type CDR3 ASSPTGGSPSPLH fall at or above the 0.8 mark?
condition met

Test whether the variant […] (CDR3 as printed); G6Q derived by comparing it with the table's wild-type CDR3 ASSPTGGSPSPLH records enrichment of 0.8 or higher.
condition met

Tell me whether enrichment is at least 0.8 here: […] (CDR3 as printed); S10E derived by comparing it with the table's wild-type CDR3 ASSPTGGSPSPLH
condition met

Could you please find out whether […] (CDR3 as printed); L12S derived by comparing it with the table's wild-type CDR3 ASSPTGGSPSPLH has enrichment that meets 0.8 or exceeds it?
condition met

More entries:
Would you say […] (CDR3 as printed); S8V derived by comparing it with the table's wild-type CDR3 ASSPTGGSPSPLH shows enrichment at minimum 0.8?
condition not met

Test whether the variant […] (CDR3 as printed); P9C derived by comparing it with the table's wild-type CDR3 ASSPTGGSPSPLH records enrichment of 0.8 or higher.
condition met
